Form field: IC50 (one value per entry).
ASSAYED SYSTEM: EGFR (C797S L858R) (Homo sapiens, UniProt P00533, C797S/L858R)
Construct: purchased signalchem
Sequence (P00533 25-1210 C797S/L858R): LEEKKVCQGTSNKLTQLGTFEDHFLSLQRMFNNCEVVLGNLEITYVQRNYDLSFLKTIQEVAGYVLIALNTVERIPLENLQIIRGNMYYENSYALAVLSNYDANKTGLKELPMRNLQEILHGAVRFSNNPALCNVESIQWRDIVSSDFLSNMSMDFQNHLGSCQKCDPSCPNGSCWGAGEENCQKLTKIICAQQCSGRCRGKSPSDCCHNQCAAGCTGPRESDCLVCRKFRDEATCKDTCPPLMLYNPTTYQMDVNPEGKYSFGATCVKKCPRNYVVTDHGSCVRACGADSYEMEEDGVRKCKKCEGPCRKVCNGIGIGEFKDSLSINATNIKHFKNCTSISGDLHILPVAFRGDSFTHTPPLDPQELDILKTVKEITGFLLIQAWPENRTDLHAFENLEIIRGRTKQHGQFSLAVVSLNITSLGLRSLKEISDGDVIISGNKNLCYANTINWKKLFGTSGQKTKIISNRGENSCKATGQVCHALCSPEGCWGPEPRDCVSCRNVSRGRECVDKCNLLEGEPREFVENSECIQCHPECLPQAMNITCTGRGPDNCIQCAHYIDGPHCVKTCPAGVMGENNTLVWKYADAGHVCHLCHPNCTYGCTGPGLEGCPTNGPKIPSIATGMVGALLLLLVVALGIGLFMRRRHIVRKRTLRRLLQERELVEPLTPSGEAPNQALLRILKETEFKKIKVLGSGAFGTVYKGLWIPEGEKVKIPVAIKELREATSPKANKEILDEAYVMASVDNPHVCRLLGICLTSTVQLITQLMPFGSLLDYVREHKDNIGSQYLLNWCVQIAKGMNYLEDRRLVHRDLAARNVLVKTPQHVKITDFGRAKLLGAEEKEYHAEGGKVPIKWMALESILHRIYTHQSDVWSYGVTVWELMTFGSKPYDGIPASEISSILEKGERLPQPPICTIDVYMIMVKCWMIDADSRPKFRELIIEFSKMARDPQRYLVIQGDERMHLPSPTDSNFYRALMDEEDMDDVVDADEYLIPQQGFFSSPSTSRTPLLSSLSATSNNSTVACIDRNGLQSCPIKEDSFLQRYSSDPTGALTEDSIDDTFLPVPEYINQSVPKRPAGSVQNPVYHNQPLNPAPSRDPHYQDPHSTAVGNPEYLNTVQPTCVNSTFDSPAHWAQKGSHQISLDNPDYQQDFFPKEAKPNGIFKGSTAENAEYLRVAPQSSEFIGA
EXPERIMENTAL DETAILS: Inhibition of EGFR (C797S L858R) biochemical enzymatic activity (HTRF)
ASSAY SETUP: EGFR L858-C797S, 1 mM ATP, 1 h, room temperature, read-out: IC50 (nM) @L858-C797S

# molecule C[C@@H]1CCCOc2c(cnn2C)-c2cc(cn(C)c2=O)C(=O)Nc2nc3ccc(N4CC5(CN(C)CCO5)C4)cc3n2C1 [Example A47] ; its IC50 = 20 nM

Looking up Cn1ncc2c1OCCN1CC3CCC(C3)(C1)n1c(nc3ccccc31)NC(=O)c1cc-2c(=O)n(C)c1 (single isomer, unassigned) [Example A61A] , I found its IC50 recorded as > 5000 nM

Value of measured IC50 for the entry CN(C)CCC1CN(c2ccc3nc4n(c3c2)C23CCC(CN(CCOc5c(cnn5C)-c5cc(cn(C)c5=O)C(=O)N4)C2)C3)C1 (single isomer, unassigned) [Example A95B] : 4.7 nM

====

System: Ba/F3 cells expressing EGFR mutations
EXPERIMENTAL DETAILS: Cell proliferation assay, Ba/F3 cells expressing EGFR mutations (CellTiter-Glo, 72 hours)
Type: cell-based
ASSAY SETUP: BaF3 cells, EGFR L858R-T790M, CellTiter-Glo, read-out: L858R-T790M/BaF3 GI50
Experimental: Biological Example 2: Cell Proliferation Assays Ba/F3 cells expressing EGFR mutations were seeded in 384-well plates at 5000 cells/well in RPMI1640 medium containing 1000 FBS. […] The assay plates were further incubated for 72 hours and the number of viable cells (G3) was measured. The percentage of proliferation was calculated as: […]=100×(G3 value of sample well−G0 value)/(G3 value of DMSO control−G0 value). […]
Entry class follows GI50: low: < 20 nM; middle: ≥ 20 nM and < 1000 nM; high: ≥ 1000 nM

{"COMPOUND": "Cn1ncc2c1OCCN1CC3CCC(C3)(C1)n1c(nc3ccc(N4CCC(N5CC(F)C5)C4)cc31)NC(=O)c1cc-2c(=O)n(C)c1 (single isomer, unassigned) [Example A94A]", "ASSAYED SYSTEM": "Ba/F3 cells expressing EGFR mutations", "ASSIGNED CLASS": "middle"}
{"COMPOUND": "CN(C)CCCN(C)c1ccc2nc3n(c2c1)C12CCC(CN(CCOc4c(cnn4C)-c4cc(cn(C)c4=O)C(=O)N3)C1)C2 (single isomer, unassigned) [Example A89B]", "ASSAYED SYSTEM": "Ba/F3 cells expressing EGFR mutations", "ASSIGNED CLASS": "low"}
{"COMPOUND": "CN1CCN(C2CCN(c3ccc4nc5n(c4c3)C34CCC(CN(CCOc6c(cnn6C)-c6cc(cn(C)c6=O)C(=O)N5)C3)C4)C2)CC1 (single isomer, unassigned) [Example A80B2]", "ASSAYED SYSTEM": "Ba/F3 cells expressing EGFR mutations", "ASSIGNED CLASS": "low"}
{"COMPOUND": "CN1CCN(C2CCN(c3ccc4nc5n(c4c3)C34CCC(CN(CCOc6c(cnn6C)-c6cc(cn(C)c6=O)C(=O)N5)C3)C4)C2)CC1 (single isomer, unassigned) [Example A80A2]", "ASSAYED SYSTEM": "Ba/F3 cells expressing EGFR mutations", "ASSIGNED CLASS": "middle"}
{"COMPOUND": "Cn1ncc2c1OCCN1CC3CCC(C3)(C1)n1c(nc3ccc(N4CCC(N5CCOCC5)C4)cc31)NC(=O)c1cc-2c(=O)n(C)c1 (single isomer, unassigned) [Example A104B]", "ASSAYED SYSTEM": "Ba/F3 cells expressing EGFR mutations", "ASSIGNED CLASS": "low"}

Q. For CN1CCC2CN(c3ccc4nc5n(c4c3)C34CCC(CN(CCOc6c(cnn6C)-c6cc(cn(C)c6=O)C(=O)N5)C3)C4)CC21 (single isomer, unassigned) [Example A79A] , which GI50 bin applies?
A. high

Q. Assign a category based on measured GI50 for CN(C)C1CCN(c2ccc3nc4n(c3c2)C23CCC(CN(CCOc5c(cnn5C)-c5cc(cn(C)c5=O)C(=O)N4)C2)C3)CC1 (single isomer, unassigned) [Example A64A] and give only the class name.
A. high

Q. Lab log: CN(C)CC1(F)CN(c2ccc3nc4n(c3c2)C23CCC(CN(CCOc5c(cnn5C)-c5cc(cn(C)c5=O)C(=O)N4)C2)C3)C1 (single isomer, unassigned) [Example A72A] — assign GI50 category
A. high

Q. Which bin should I file CN1CC2CC1CN2c1ccc2nc3n(c2c1)C12CCC(CN(CCOc4c(cnn4C)-c4cc(cn(C)c4=O)C(=O)N3)C1)C2 (single isomer, unassigned) [Example A105B] under?
A. low
